Give IC50 for every item shown.
target.entity: USP25 (Homo sapiens (Human))

{"columns": ["molecule", "IC50"],
 "data": [
  ["Cc1ccc2c(N)c(C(=O)NCCc3ccc(C(=O)O)cc3)sc2n1", "0.2 to 2 µM"],
  ["Cc1ccc2c(N)c(C(=O)NCCc3ccc(N4CC5CCC(C4)N5)cc3C#N)sc2n1", "0.2 to 2 µM"],
  ["Cc1cc(C(F)(F)F)c2c(N)c(C(=O)NCCc3ccc(N4CCNCC4)c(F)c3)sc2n1", "< 0.2 µM"]
]}

Would you be so kind as to report IC50 for each listed record?
1. Cc1cc2c(N)c(C(=O)NCCc3ccc(N4CCNCC4)c(Cl)c3)sc2nc1C
2. Cc1ccc2c(N)c(C(=O)NCCc3ccc(N4CCNCC4)c(-c4cnn(C5CCOCC5)c4)c3)sc2n1

["2 to 10 µM", "10 to 25 µM"]

Would you be so kind as to report IC50 for each listed record?
1. Cc1ccc2c(N)c(C(=O)NC[C@@H](C)c3cc(F)c(N4CC5CCC(C4)N5)cc3F)sc2n1 (single isomer, unassigned)
2. CNc1ccc2c(N)c(C(=O)NCCc3ccc(N4CCN(C)CC4)cc3)sc2n1
3. Cc1ccc2c(N)c(C(=O)NCCc3ccc(N4CCn5ccnc5C4)cc3)sc2n1
4. Nc1c(C(=O)NCCc2ccc(N3CCNCC3)cc2)sc2nc(C(F)(F)F)ccc12
5. Cc1ccc2c(N)c(C(=O)NCCc3ccc(N4CCNCC4)c(F)c3)sc2n1
6. Cc1ccc2c(N)c(C(=O)NC[C@H](C)c3ccc(N4CC5CCC(C4)N5)c(C#N)c3)sc2n1 (single isomer, unassigned)
7. COc1nc2sc(C(=O)NCCc3cc(F)c(N4CCNCC4)cc3F)c(N)c2cc1F
8. Cc1ccc2c(N)c(C(=O)NCCc3ccc(N4CCNCC4)cc3C)sc2n1

1. 2 to 10 µM
2. 0.2 to 2 µM
3. 0.2 to 2 µM
4. 2 to 10 µM
5. 0.2 to 2 µM
6. 2 to 10 µM
7. 2 to 10 µM
8. 0.2 to 2 µM

Would you be so kind as to report IC50 for each listed record?
1. Nc1c(C(=O)NCCc2ccc(N3CCNCC3)cc2)sc2nc(CO)ccc12
2. Nc1c(C(=O)NCCc2ccc(N3CCNCC3)cc2)sc2ncc(C(F)F)cc12
3. Nc1c(C(=O)NCCc2ccc(N3CCNCC3)cc2)sc2nc3c(cc12)CCC3O (stereo not drawn)
4. Cc1ccc2c(N)c(C(=O)NCCc3ccc([C@@H]4CCNC4)cc3)sc2n1 (single isomer, unassigned)

1. 2 to 10 µM
2. 10 to 25 µM
3. 0.2 to 2 µM
4. 0.2 to 2 µM

---

Give pIC50 for every item shown.
target.entity: USP25 (Homo sapiens (Human), UniProt Q9UHP3)
Sequence (Q9UHP3 whole entry): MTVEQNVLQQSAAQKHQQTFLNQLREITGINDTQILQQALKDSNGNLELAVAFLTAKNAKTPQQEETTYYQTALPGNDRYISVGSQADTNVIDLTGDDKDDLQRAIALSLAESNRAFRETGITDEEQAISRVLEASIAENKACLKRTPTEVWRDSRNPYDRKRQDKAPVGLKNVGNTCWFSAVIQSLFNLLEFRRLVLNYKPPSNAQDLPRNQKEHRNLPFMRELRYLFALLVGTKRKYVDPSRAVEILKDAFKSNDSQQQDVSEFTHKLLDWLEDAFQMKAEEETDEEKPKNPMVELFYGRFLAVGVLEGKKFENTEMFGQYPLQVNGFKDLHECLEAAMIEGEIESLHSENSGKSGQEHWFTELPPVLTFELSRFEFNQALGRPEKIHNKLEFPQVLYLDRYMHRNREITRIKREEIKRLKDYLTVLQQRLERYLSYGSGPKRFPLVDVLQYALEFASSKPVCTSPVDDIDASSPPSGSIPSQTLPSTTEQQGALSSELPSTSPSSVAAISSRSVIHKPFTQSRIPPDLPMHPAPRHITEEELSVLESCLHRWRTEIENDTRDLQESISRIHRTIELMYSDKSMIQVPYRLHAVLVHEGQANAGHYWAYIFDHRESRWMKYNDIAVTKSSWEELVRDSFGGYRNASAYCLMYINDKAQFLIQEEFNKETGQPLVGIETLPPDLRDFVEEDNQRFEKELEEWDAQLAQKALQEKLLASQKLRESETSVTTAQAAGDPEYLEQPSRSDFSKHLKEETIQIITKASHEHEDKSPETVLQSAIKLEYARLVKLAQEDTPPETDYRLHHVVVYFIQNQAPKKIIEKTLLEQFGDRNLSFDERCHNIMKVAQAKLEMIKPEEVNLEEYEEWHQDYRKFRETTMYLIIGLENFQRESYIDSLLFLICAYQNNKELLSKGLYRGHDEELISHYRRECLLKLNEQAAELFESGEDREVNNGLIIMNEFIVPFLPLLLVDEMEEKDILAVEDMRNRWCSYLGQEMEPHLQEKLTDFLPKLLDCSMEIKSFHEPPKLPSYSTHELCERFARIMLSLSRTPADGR
pIC50: −log10 of the molar value.

Sample answers from the record:
{"columns": ["compound", "pIC50"],
 "data": [
  ["Cc1ccc2c(N)c(C(=O)NCCc3ccc(CC(=O)O)cc3)sc2n1", "5.00 to 5.70"],
  ["Cc1ccc2c(N)c(C(=O)NC[C@H](C)c3cc(F)c(N4CCNCC4)cc3F)sc2n1", "5.00 to 5.70"],
  ["Cc1nc2sc(C(=O)NCCc3ccc(N4CCNCC4)cc3)c(N)c2cc1C1CC1", "4.60 to 5.00"],
  ["CCOc1cc(CCNC(=O)c2sc3nc(C)ccc3c2N)ccc1N1CCNCC1", "5.70 to 6.70"],
  ["Cc1ccc2c(N)c(C(=O)NCCc3ccc(N4CC5CCC(C4)N5)cc3Cl)sc2n1", "> 6.70"]
]}

Would you be so kind as to report pIC50 for each listed record?
1. Nc1c(C(=O)NCCc2ccc(C3CCNCC3)cc2)sc2nc(Cl)ccc12
2. Cc1ccc2c(N)c(C(=O)NCCc3ccc(O[C@H]4COC5(CNC5)C4)cc3)sc2n1 (single isomer, unassigned)

1: 5.70 to 6.70; 2: 5.70 to 6.70

Would you be so kind as to report pIC50 for each listed record?
1. CCN[C@@H]1CCN(c2ccc(CCNC(=O)c3sc4nc(C)ccc4c3N)cc2)C1
2. Cc1ccc2c(N)c(C(=O)NCCc3ccc(N4CCNCC4)cc3F)sc2n1
3. Cc1ccc2c(N)c(C(=O)NCCc3ccc(-n4ncc5c4CNC5)cc3)sc2n1
4. Cc1ccc2c(N)c(C(=O)NCCc3cc(F)c(N4CCN[C@@H](C)C4)cc3F)sc2n1
5. Cc1ccc2c(N)c(C(=O)NCCc3cc(F)c(N4CCNCC4)cc3F)sc2n1
6. Cc1ccc2c(N)c(C(=O)NCCc3ccc([C@H]4CCNC4)cc3)sc2n1 (single isomer, unassigned)

["5.70 to 6.70", "5.70 to 6.70", "5.00 to 5.70", "5.00 to 5.70", "5.70 to 6.70", "5.70 to 6.70"]

Would you be so kind as to report pIC50 for each listed record?
1. CN[C@H]1CCN(c2ccc(CCNC(=O)c3sc4nc(C)ccc4c3N)cc2Cl)C1
2. Cc1ccc2c(N)c(C(=O)NCCc3ccc(N4CCN[C@@H](CO)C4)cc3)sc2n1
3. Cc1ccc2c(N)c(C(=O)NCCc3ccc(C4CC5CCC(C4)N5)cc3)sc2n1 (single isomer, unassigned) [Example I-172]

1. 5.70 to 6.70
2. 5.70 to 6.70
3. > 6.70
